Just for reference, ChEMBL document CHEMBL5154747 is where these values come from.

System: NCI/ADR-RES
Experiment: Anticancer activity against human NCI/ADR-RES cells assessed as cell growth inhibition at 10 uM incubated for 48 hrs by SRB assay relative to control
Type: functional
Conditions: read-out: GI
value type: inhibition of growth at 10 µM

NS(=O)(=O)c1ccc(Nc2nc(N/N=C/c3ccc([N+](=O)[O-])cc3)nc(Nc3ccccc3)n2)cc1	< 10%
NS(=O)(=O)c1ccc(Nc2nc(N/N=C/c3ccc(C(F)(F)F)cc3)nc(Nc3ccccc3)n2)cc1	12%
CCCCc1nc(/C=N/Nc2nc(Nc3ccccc3)nc(Nc3ccc(S(N)(=O)=O)cc3)n2)c(Cl)[nH]1	< 10%

# next compound below
# input Please report the recorded inhibition of growth at 10 µM for `COc1ccc(/C=N/Nc2nc(Nc3ccccc3)nc(Nc3ccc(S(N)(=O)=O)cc3)n2)cc1` .
# output < 10%

---

Tested on: HCC 2998
Test: Anticancer activity against human HCC 2998 cells assessed as cell growth inhibition at 10 uM incubated for 48 hrs by SRB assay relative to control
Assay type: functional
Conditions: read-out: GI
value type: inhibition of growth at 10 µM

Here is how some compounds turned out for inhibition of growth at 10 µM.
NS(=O)(=O)c1ccc(Nc2nc(N/N=C/c3c[nH]c4ccccc34)nc(Nc3ccccc3)n2)cc1	47%
NS(=O)(=O)c1ccc(Nc2nc(N/N=C/CCc3ccccc3)nc(Nc3ccccc3)n2)cc1	< 10%
CN(C)c1ccc(/C=N/Nc2nc(Nc3ccccc3)nc(Nc3ccc(S(N)(=O)=O)cc3)n2)cc1	< 10%

# input Tell me the measured inhibition of growth at 10 µM of `NNc1nc(Nc2ccccc2)nc(Nc2ccc(S(N)(=O)=O)cc2)n1` , please.
# output < 10%

---

System: BT-549
Assay: Anticancer activity against human BT-549 cells assessed as cell growth inhibition incubated for 48 hrs by SRB assay
Type: functional
Details: read-out: LC50 (the source's name)
value type: CC50

Here are 3 compounds together with their reported answers.
NS(=O)(=O)c1ccc(Nc2nc(N/N=C/c3ccccn3)nc(Nc3ccccc3)n2)cc1	> 100 µM
O=c1[nH]cc(F)c(=O)[nH]1	> 100 µM
Cc1nn(-c2ccccc2)cc1/C=N/Nc1nc(Nc2ccccc2)nc(Nc2ccc(S(N)(=O)=O)cc2)n1	> 100 µM

Then there is this compound:
# input Fill blank: measured CC50 of the compound `NS(=O)(=O)c1ccc(Nc2nc(N/N=C/c3ccc(C(F)(F)F)cc3)nc(Nc3ccccc3)n2)cc1` is ____.
# output 37.2 µM

---

System: 786-0
Experiment: Anticancer activity against human 786-0 cells assessed as cell growth inhibition at 10 uM incubated for 48 hrs by SRB assay relative to control
Assay type: functional
Details: read-out: GI
Reported values of inhibition of growth at 10 µM for individual entries
Unit % implied. Number only.

Observe how each entry below is paired with its result.
NS(=O)(=O)c1ccc(Nc2nc(N/N=C/c3ccccn3)nc(Nc3ccccc3)n2)cc1	91
NS(=O)(=O)c1ccc(Nc2nc(N/N=C/c3ccc(C(F)(F)F)cc3)nc(Nc3ccccc3)n2)cc1	103
Cc1ccc(/C=N/Nc2nc(Nc3ccccc3)nc(Nc3ccc(S(N)(=O)=O)cc3)n2)cc1	53

Read the next record carefully.
# input Which inhibition of growth at 10 µM is listed for `NS(=O)(=O)c1ccc(Nc2nc(N/N=C/C=C/c3ccccc3)nc(Nc3ccccc3)n2)cc1` ?
# output 62

---

Listing: GI50 of selected molecules
System: HOP-62
Test: Anticancer activity against human HOP-62 cells assessed as cell growth inhibition incubated for 48 hrs by SRB assay
Type: functional
Respond with the bare value in nM.

Cc1nn(-c2ccccc2)cc1/C=N/Nc1nc(Nc2ccccc2)nc(Nc2ccc(S(N)(=O)=O)cc2)n1	2830
O=c1[nH]cc(F)c(=O)[nH]1 [FLUOROURACIL]	390
NS(=O)(=O)c1ccc(Nc2nc(N/N=C/c3ccccn3)nc(Nc3ccccc3)n2)cc1	550

# input Need GI50, item `NS(=O)(=O)c1ccc(Nc2nc(N/N=C/c3ccc(C(F)(F)F)cc3)nc(Nc3ccccc3)n2)cc1`
# output 2150

---

Tested on: HT-29
Assay: Anticancer activity against human HT-29 cells assessed as cell growth inhibition incubated for 48 hrs by SRB assay
Type: functional
Conditions: read-out: LC50 (the source's name)
value type: CC50

# example entries with known answers
O=c1[nH]cc(F)c(=O)[nH]1	> 100 µM
Cc1nn(-c2ccccc2)cc1/C=N/Nc1nc(Nc2ccccc2)nc(Nc2ccc(S(N)(=O)=O)cc2)n1	> 100 µM
NS(=O)(=O)c1ccc(Nc2nc(N/N=C/c3ccccn3)nc(Nc3ccccc3)n2)cc1	> 100 µM

Pending molecule:
# input For the molecule shown here, `NS(=O)(=O)c1ccc(Nc2nc(N/N=C/c3ccc(C(F)(F)F)cc3)nc(Nc3ccccc3)n2)cc1` , give the reported CC50.
# output 50.1 µM

---

System: RXF 393
Assay: Anticancer activity against human RXF 393 cells assessed as cell growth inhibition at 10 uM incubated for 48 hrs by SRB assay relative to control
Type: functional
Conditions: read-out: GI
value type: inhibition of growth at 10 µM (%)
Write the number in % without appending the unit.

CN(C)c1ccc(/C=N/Nc2nc(Nc3ccccc3)nc(Nc3ccc(S(N)(=O)=O)cc3)n2)cc1	35

# input Write down the reported inhibition of growth at 10 µM of `NS(=O)(=O)c1ccc(Nc2nc(N/N=C/c3ccc(F)cc3)nc(Nc3ccccc3)n2)cc1` , test system: RXF 393.
# output 42

# input So what inhibition of growth at 10 µM did `NS(=O)(=O)c1ccc(Nc2nc(N/N=C/c3ccc([N+](=O)[O-])cc3)nc(Nc3ccccc3)n2)cc1` get with RXF 393?
# output 105

---

# inhibition of growth at 10 µM values compiled below
Tested on: HCC 2998
Experiment: Anticancer activity against human HCC 2998 cells assessed as cell growth inhibition at 10 uM incubated for 48 hrs by SRB assay relative to control
Assay type: functional
Settings: read-out: GI
Provide the reading as a plain figure in %.

NS(=O)(=O)c1ccc(Nc2nc(N/N=C/c3ccc(Cl)cc3)nc(Nc3ccccc3)n2)cc1	23
Cc1nn(-c2ccccc2)cc1/C=N/Nc1nc(Nc2ccccc2)nc(Nc2ccc(S(N)(=O)=O)cc2)n1	117

# input Record request: inhibition of growth at 10 µM value, item `NS(=O)(=O)c1ccc(Nc2nc(N/N=C/c3cccc4ccccc34)nc(Nc3ccccc3)n2)cc1`
# output 15

# input Fill in the blank: the reported inhibition of growth at 10 µM of `NS(=O)(=O)c1ccc(Nc2nc(N/N=C/c3ccc([N+](=O)[O-])cc3)nc(Nc3ccccc3)n2)cc1` is ____.
# output 80

# input So what does the record say about inhibition of growth at 10 µM for `NS(=O)(=O)c1ccc(Nc2nc(N/N=C/c3ccc(F)cc3)nc(Nc3ccccc3)n2)cc1` ?
# output 44

---

Test system: MOLT-4
Assay: Anticancer activity against human MOLT-4 cells assessed as cell growth inhibition at 10 uM incubated for 48 hrs by SRB assay relative to control
Format: functional
Conditions: read-out: GI
Response key: y means inhibition of growth at 10 µM >= 60%; n means inhibition of growth at 10 µM < 60%.

// known answers, use as guide
CN(C)c1ccc(/C=N/Nc2nc(Nc3ccccc3)nc(Nc3ccc(S(N)(=O)=O)cc3)n2)cc1	n
NS(=O)(=O)c1ccc(Nc2nc(N/N=C/c3cccc4ccccc34)nc(Nc3ccccc3)n2)cc1	y
COc1ccc(/C=N/Nc2nc(Nc3ccccc3)nc(Nc3ccc(S(N)(=O)=O)cc3)n2)cc1	n
NS(=O)(=O)c1ccc(Nc2nc(N/N=C/c3cccs3)nc(Nc3ccccc3)n2)cc1	n

# input hey, is inhibition of growth at 10 µM for this one >= 60%? `NS(=O)(=O)c1ccc(Nc2nc(N/N=C/c3ccc4c(c3)OCO4)nc(Nc3ccccc3)n2)cc1`
# output y

# input Decide: is the reported value of inhibition of growth at 10 µM for `NNc1nc(Nc2ccccc2)nc(Nc2ccc(S(N)(=O)=O)cc2)n1` equal to or greater than 60%?
# output y

# input Please tell me: is the compound `NS(=O)(=O)c1ccc(Nc2nc(N/N=C/CCc3ccccc3)nc(Nc3ccccc3)n2)cc1` at or over 60% in terms of inhibition of growth at 10 µM?
# output n

# input hey, is inhibition of growth at 10 µM for this one >= 60%? `NS(=O)(=O)c1ccc(Nc2nc(N/N=C/C=C/c3ccccc3)nc(Nc3ccccc3)n2)cc1`
# output y

---

Listed here: items and their measured CC50.
Test system: OVCAR-5
Assay: Anticancer activity against human OVCAR-5 cells assessed as cell growth inhibition incubated for 48 hrs by SRB assay
Assay type: functional
Conditions: read-out: LC50 (the source's name)

NS(=O)(=O)c1ccc(Nc2nc(N/N=C/c3ccc(C(F)(F)F)cc3)nc(Nc3ccccc3)n2)cc1	39.9 µM
NS(=O)(=O)c1ccc(Nc2nc(N/N=C/c3ccccn3)nc(Nc3ccccc3)n2)cc1	> 100 µM
Cc1nn(-c2ccccc2)cc1/C=N/Nc1nc(Nc2ccccc2)nc(Nc2ccc(S(N)(=O)=O)cc2)n1	> 100 µM

# input Item under review: `O=c1[nH]cc(F)c(=O)[nH]1` . Reported CC50?
# output > 100 µM
